Target: GlcNAc(a1-4)Gal(b1-4)GlcNAc(b1-3)Gal(b1-4)[Fuc(a1-3)]GlcNAc(b1-3)Gal(b1-4)[Fuc(a1-3)]GlcNAc
Assay: glycan array binding signal (z-score within array); higher = stronger binding
Conditions: glycan notation: IUPAC condensed, linker removed
This is one part of a sample in which the strongest signals are shown more often than they occur.
ENDPOINT NAME: glycan array binding signal (z-score)
// keep it numeric: no unit symbol after the value

binder="Microvirin-2 (Microcystis aeruginosa) (protein) MPNFSHTCSSINYDPDSTILSAECQARDGEWLPTELRLSDHIGNIDGELQFGDQNFQETCQDCHLEFGDGEQSVWLVCTCQTMDGEWKSTQILLDSQIDNNDSQLEIGGSMPNFSHTCSSINYDPDSTILSAECQARDGEWLPTELRLSDHIGNIDGELQFGDQNFQETCQDCHLEFGDGEQSVWLVCTCQTMDGEWKSTQILLDSQIDNNDSQLEIG" measured_number=-0.031
binder="Eosinophil cationic protein (ECP) (Homo sapiens), P12724 (protein) MVPKLFTSQICLLLLLGLMGVEGSLHARPPQFTRAQWFAIQHISLNPPRCTIAMRAINNYRWRCKNQNTFLRTTFANVVNVCGNQSIRCPHNRTLNNCHRSRFRVPLLHCDLINPGAQNISNCTYADRPGRRFYVVACDNRDPRDSPRYPVVPVHLDTTI" measured_number=4.18

Please find the next binder below.
Prompt: Dear colleague, please send me the reported glycan array binding signal (z-score) for Protectin (Homo sapiens), P13987 (protein) MGIQGGSVLFGLLLVLAVFCHSGHSLQCYNCPNPTADCKTAVNCSSDFDACLITKAGLQVYNKCWKFEHCNFNDVTTRLRENELTYYCCKKDLCNFNEQLENGGTSLSEKTVLLLVTPFLAAAWSLHP when you can.
Completion: 6.43
